Tested on: Caco-2 cells
assay.text: Cell permeability flux assay using Caco-2 cells
Type: in vitro ADME
condition: basal to apical, 2 hours
Square brackets hold non-standard residues; d marks the D form. Peptide text beside a SMILES is read from it. * marks the point of attachment. X1 = CC(C)[C@@H](C(=O)*)N(C)CCCCCC(=O)NCCCC[C@H](N)C(=O)O; Dolaproine = CO[C@@H]([C@@H]1CCCN1)[C@@H](C)C(=O)O; Dil = CC[C@H](C)[C@H](NC)[C@@H](CC(=O)O)OC; Oxazinan2yl(1,2) = C1CCN(*)OC1
Exercise: for every item that follows, state its recorded Papp (B-A).
Give bare numbers, in ×10⁻⁶ cm/s.

Guide cases for Papp (B-A), answers given:
- CC[C@H](C)[C@@H]([C@@H](CC(=O)N1CCC[C@H]1[C@H](OC)[C@@H](C)C(=O)N[C@@H](Cc1c[nH]c2ccccc12)C(N)=O)OC)N(C)C(=O)[C@@H](NC(=O)[C@H](C(C)C)N(C)CCCC(=O)NNC(=O)CCCCCN1C(=O)CC(SC[C@H](N)C(=O)O)C1=O)C(C)C (stereo partly drawn): 0.2
- CC[C@H](C)[C@@H]([C@@H](CC(=O)N1CCC[C@H]1[C@H](OC)[C@@H](C)C(=O)N[C@@H](Cc1c[nH]c2ccccc12)C(=O)O)OC)N(C)C(=O)[C@@H](NC(=O)[C@H](C(C)C)N(C)CCCC(=O)NNC(=O)CCCCCN1C(=O)CC(SC[C@H](N)C(=O)O)C1=O)C(C)C (stereo partly drawn): 0.16

# molecule CC[C@H](C)[C@@H]([C@@H](CC(=O)N1CCC[C@H]1[C@H](OC)[C@@H](C)C(=O)N[C@@H](Cc1c[nH]c2ccccc12)C(=O)N1CCCCO1)OC)N(C)C(=O)[C@@H](NC(=O)[C@H](C(C)C)N(C)CCCCCC(=O)NCCCC[C@H](N)C(=O)O)C(C)C [Example 115] (X1-V[Dil][Dolaproine]W-{Oxazinan2yl(1,2)}) ; its Papp (B-A) = 0.2

Data origin: patent US8992932B2
